System: KM12
Experiment summary: NCI tumour cell line growth inhibition, 48 h
Activity calls are given as the source filed them. Rule as the data show it: active = GI50 up to about 1.1 µM and inactive = higher.
Outcome (select one): Y = active, N = inactive

// outcome(item) with item = "Oc1c(-c2ccccc2)nc2ccccn12"
N

Next up: "O=C(c1ccccc1)N1CCN(C(=S)N(C(=O)c2ccccc2)c2ccccc2)C1=S"
N

Next up: "CCOc1ccc(/C=C2\NC(=S)N(/C=C3\C(=O)Oc4ccccc4C3=O)C2=O)cc1"
N

Next up: "O=Cc1[nH]c2ccccc2c1Br"
N

Next up: "C/C=C/C(=O)[C@@H](O)C(C)C"
N

Next up: O=C(CCCC1Cc2ccccc2C1=O)c1ccccc1 (configuration not stated)
N

Next up: CCCCc1c2c(nc3c1CCCC3O)CCCC2 (configuration not stated)
N

Next up: CCOC(=O)C1C(c2ccc(OC)cc2)c2c(n[nH]c2O)CC1(O)OCC (configuration not stated)
N

Next up: CC(=O)OC(C)c1cc2c(s1)C(=O)c1ccsc1C2=O (configuration not stated)
Y

Next up: "NC(=O)C(=CNC(=S)Nc1cccc(C(F)(F)F)c1)C(N)=O"
N

Next up: O=c1[nH]c(=O)n(C2C(CO)OC(CO)C2O)cc1F (configuration not stated)
N

Next up: "COc1cc(/C=C(\C#N)C(N)=C(C#N)C#N)cc(O)c1O"
N

----------
Tested on: HT-29
Experiment summary: NCI tumour cell line growth inhibition, 48 h
The source made the active and inactive calls. Rule as the data show it: active = GI50 up to about 1.1 µM and inactive = higher.
Would you kindly list GI50 for each of these compounds?

For the compound O=C1C(c2ccccc2)=C(c2ccccc2)C(c2ccccc2)/C1=C1\C(=O)C(c2ccccc2)=C(c2ccccc2)C1c1ccccc1 (stereo not given) , what GI50 is on record?
> 100 µM (inactive)

Next up: "COc1ccccc1NC(=O)C1=C(C)NC(C)=C(C(=O)Nc2ccccc2OC)C1c1cccc2c1OCO2"
> 100 µM (inactive)

Next up: "CCc1nc(N)nc(N)c1-c1ccc(NCCN)c([N+](=O)[O-])c1"
6.11 µM (inactive)

Next up: "CCOC(=O)c1ccc(C(=O)/C(C(=O)OC(C)(C)C)=C2\CCCN2C)n1C"
45.2 µM (inactive)

Next up: "Sc1ncc2[nH]nnc2n1"
> 100 µM (inactive)

----------
Tested on: HT-29
Experiment summary: NCI tumour cell line growth inhibition, 48 h
Activity calls are given as the source filed them. No stated cut-off is given here; in the data, active = GI50 up to about 1.1 µM and inactive = higher.
Measured parameter: GI50

// map "C/N=c1/ss/c(=N\C(SC)=[N+](C)C)n1C.[O-][Cl+3]([O-])([O-])[O-]" to recorded GI50 (system: HT-29)
4.98 µM (inactive)

Next up: "CNC(=S)/N=C(\N)N(C)C"
> 100 µM (inactive)

Next up: C/C=C/C[C@@H](C)[C@@H](O)[C@H]1C(=O)N[C@@H](CC)C(=O)N(C)CC(=O)N(C)[C@@H](CC(C)C)C(=O)N[C@@H](C(C)C)C(=O)N(C)[C@@H](CC(C)C)C(=O)N[C@@H](C)C(=O)N[C@H](C)C(=O)N(C)[C@@H](CC(C)C)C(=O)N(C)[C@@H](CC(C)C)C(=O)N(C)[C@@H](C(C)C)C(=O)N1C [CYCLOSPORINE]
2.29 µM (inactive)

Next up: "Cc1cc(S(=O)(=O)Nc2nc3cc(-c4ccc(Cl)cc4)sc3c(=O)n2N)c(S)cc1Cl"
54.5 µM (inactive)

Next up: COC(=O)C1(C)CCCC2(C)C3CCC4CC3(C=C4CO)CCC12 (stereo not drawn)
16.2 µM (inactive)

Next up: CCCCCC(/C=N/NC(N)=S)C(O)(C(F)(F)F)C(F)(F)F (stereo not drawn)
> 10 µM (inactive)

Next up: "Cc1ccccc1C(=O)c1cc(O)ccc1O"
35.9 µM (inactive)

Next up: CC(C)(C)OC(=O)NCCCCC(NC(=O)OCc1ccccc1)C(N)=O (stereo not drawn)
> 100 µM (inactive)

----------
Test system: NCI-H23
Experiment summary: NCI tumour cell line growth inhibition, 48 h
Active and inactive are the calls of the source. Cut-off read from the data, not from the text of the source: active = GI50 up to about 1.1 µM and inactive = higher.
Measured parameter: GI50

For the compound CC(C)CC1NC(=O)C(C(C)C)NC(=O)CC(C)COC(=O)C(CC(C)C)N(C)C(=O)C(C(C)C)NC(=O)C(C(C)C)OC1=O (stereo not drawn) , what GI50 is on record?
> 50 µM (inactive)

Next up: CCCCCC(/C=N/NC(N)=S)C(O)(C(F)(F)F)C(F)(F)F (stereo not drawn)
> 10 µM (inactive)

Next up: "O=[N+]([O-])c1ccc2c(/N=N/c3ccc4ccccc4c3O)c(O)cc(S(=O)(=O)O)c2c1"
31.3 µM (inactive)

Next up: "COc1cc(/C=C(\C#N)C(N)=C(C#N)C#N)cc(O)c1O"
> 100 µM (inactive)

Next up: O=C(C#Cc1ccccc1)N1c2ccccc2CC1c1c[nH]c2ccccc12 (stereo not drawn)
12.6 µM (inactive)

Next up: "CCOC(=O)c1c(N2CCCC2)[nH]c(=O)c(C(c2ccc(N(C)C)cc2)c2c(O)c(C(=O)OCC)c(N3CCCC3)[nH]c2=O)c1O"
95.5 µM (inactive)

Next up: CCCCCCCCCCOC1C(C(O)CNCCCN(C)C)OC2OC3(CCCCC3)OC21 (stereo not drawn)
1.48 µM (inactive)

Next up: "CCOC(=O)/C(C#N)=C(/NNc1ccccc1)c1ccncc1C(=O)O"
> 100 µM (inactive)

Next up: "CC(C)(C)OC/C=C(/CO)[C@@H]1C=C[C@H](O)C1"
> 100 µM (inactive)

Next up: COc1ccccc1C1C(Cl)C(=O)N1NC(=O)Cc1ccccc1 (stereo not drawn)
> 100 µM (inactive)

Next up: "O=C(NC1CCCCC1)c1nn[nH]c1Cl"
> 100 µM (inactive)

Next up: "COc1cc(OC)c2c3c(OC)cc(OC)c4c(=O)c(O)c(C[C@@H](C)O)c(c5c(C[C@@H](C)O)c(O)c(=O)c1c25)c43"
19 µM (inactive)

Next up: "O=C(O)c1ccc2c(c1)Cc1cc([N+](=O)[O-])ccc1-2"
> 100 µM (inactive)

Next up: "NNc1nnc(-c2nnc(NN)o2)o1"
> 10 µM (inactive)

Next up: COC12OCCN(C)C1=CC(=O)C1N=NCC12 (stereo not drawn)
> 100 µM (inactive)

Next up: "COc1ccc(CCCCNCc2cccc(CNCCCCc3ccc(OC)cc3)c2)cc1"
1.78 µM (inactive)

Next up: C/C=C/C[C@@H](C)[C@@H](O)[C@H]1C(=O)N[C@@H](CC)C(=O)N(C)CC(=O)N(C)[C@@H](CC(C)C)C(=O)N[C@@H](C(C)C)C(=O)N(C)[C@@H](CC(C)C)C(=O)N[C@@H](C)C(=O)N[C@H](C)C(=O)N(C)[C@@H](CC(C)C)C(=O)N(C)[C@@H](CC(C)C)C(=O)N(C)[C@@H](C(C)C)C(=O)N1C [CYCLOSPORINE]
5.37 µM (inactive)

Next up: "COC/C=C\[C@@]1(O)CCCC[C@@H]1CC(OC)OC"
39.6 µM (inactive)

----------
Tested on: UO-31
Experiment summary: NCI tumour cell line growth inhibition, 48 h
The source made the active and inactive calls. Cut-off read from the data, not from the text of the source: active = GI50 up to about 1.1 µM and inactive = higher.
Measured parameter: GI50

For the molecule C=C1C(=O)OC2/C=C(\COC(C)=O)CCC(OC(C)=O)C3=CC(OC3=O)C12 (configuration not stated) , what GI50 is on record?
17.3 µM (inactive)

Next up: "O=C(/C=C/c1ccc(OCC(=O)N2CCN(c3ccccc3)CC2)cc1)c1ccccc1"
15.2 µM (inactive)

Next up: CC1OC(O[C@@H]2OC=C(C=O)[C@@]3(O)CC[C@H](C)[C@@H]23)C(O)C(O)C1O (some centres not stated)
> 100 µM (inactive)

Next up: Clc1cccc(N2CCN(CCCN3CCc4c([nH]c5ccccc45)C3c3cccnc3)CC2)c1 (configuration not stated)
5.15 µM (inactive)

Next up: CC1=CC2C(C=C1)S(=O)(=O)N1CC21c1ccccc1 (configuration not stated)
55.1 µM (inactive)

Next up: "Cn1cc2ccccc2c1-c1nc(F)nc(F)n1"
> 100 µM (inactive)

Next up: "CCOC(=O)/C(C#N)=C(/NNc1ccccc1)c1ccncc1C(=O)O"
4.49 µM (inactive)

----------
Test system: SW-620
Experiment summary: NCI tumour cell line growth inhibition, 48 h
Calls of active or inactive are those of the source. No stated cut-off is given here; in the data, active = GI50 up to about 1.1 µM and inactive = higher.
Outcome (select one): yes for active, no for inactive

// outcome(item) with item = C/C=C1\C[C@@H]2C(OC)Nc3cc(O)c(OC)cc3C(=O)N2C1 (stereo not given in full)
yes

Next up: "CC(C)CCNC(=O)c1ccc(CNC(=O)/C=C/c2ccc(-c3ccccc3[N+](=O)[O-])o2)cc1"
no

Next up: "CCOC(=O)c1ccc(N(CCOS(C)(=O)=O)CCOS(C)(=O)=O)cc1"
no

Next up: "Cc1ccc2c(O)cc(-c3ccc4ccccc4c3)nc2n1"
no

Next up: CC1=C(/C=C/C(C)=C/C2CC(N(C)C)=CC(=O)O2)C(C)(C)CCC1 (stereo not given)
no

Next up: "O=[N+]([O-])c1ccc2c(/N=N/c3ccc4ccccc4c3O)c(O)cc(S(=O)(=O)O)c2c1"
no

Next up: "CC(=O)OCCOCNC(=S)N/N=C/c1ccc([N+](=O)[O-])s1"
no

Next up: "COc1ccc2c3c([nH]c(=O)c2c1C(=O)O)-c1ccccc1CC3"
no

Next up: "Clc1ccc(-c2c(C3=NCCCN3)nnn2-c2ccccc2)cc1"
no

Next up: "O=C(Nc1ccc(Cl)cc1)C(=O)C1=C(O)c2ccccc2OC1"
no

Next up: COc1ccc(C2COc3cc(OC(C)=O)c(OC(C)=O)cc3C2)cc1 (stereo not given)
no

Next up: "Nc1ccc(/N=N/c2ccc(-c3ccc(/N=N/c4c(S(=O)(=O)O)cc5cc(S(=O)(=O)O)c(/N=N/c6ccc([N+](=O)[O-])cc6)c(N)c5c4O)cc3)cc2)c2cc(S(=O)(=O)O)ccc12"
no

Next up: COC(=O)/C(=N\Nc1nnc(C)n1N)C(C#N)c1ccccc1 (stereo not given)
no

Next up: "CN1COCN/C1=N/C#N"
no

Next up: "O=c1cnn(C/C=C/CBr)c(=O)[nH]1"
no

Next up: "O/N=C(\CC(O)(C(F)(F)F)C(F)(F)F)c1cccs1"
no

Next up: "CCCCCCCCCC(=O)CC(=O)c1c(O)cccc1O"
no

Next up: "O=C(/C=C/c1ccc(OCC(=O)N2CCN(c3ccccc3)CC2)cc1)c1ccccc1"
no

Next up: "O=c1ccn([C@@H]2C=C(CO)[C@@H](O)[C@H]2O)c(=O)[nH]1"
no

Next up: "CCOC(=O)C1(Br)S(=O)(=O)OCCOS1(=O)=O"
no

Next up: "CCOP(=O)(COCCn1ncc(=O)[nH]c1=O)OCC"
no

Next up: "C=C1C(=O)[C@@]23CC[C@H]4[C@@](C)(CCC[C@@]4(C)C(=O)OC)[C@@H]2CC[C@]1(O)C3"
yes

Next up: "C/C=C/C(=O)[C@@H](O)C(C)C"
no

Next up: "CC(C)CCC[C@@H](C)[C@H]1CC[C@H]2C3=C[C@H](OS(=O)(=O)O)[C@@]4(O)C[C@@H](O)CC[C@]4(C)[C@@]3(O)CC[C@]12C"
no

Next up: CC1OC(OC2C(O[C@H]3CC[C@@]4(C)[C@@H](CC[C@@H]5[C@@H]4CC[C@]4(C)[C@@H]6[C@H](C[C@@H]54)O[C@]4(CC[C@@H](C)CO4)[C@H]6C)C3)OC(CO)C(OC3OC(CO)C(O)C(OC4OCC(O)C(O)C4O)C3OC3OCC(O)C(O)C3O)C2O)C(O)C(O)C1O (stereo not given in full)
yes

Next up: CC(=O)c1ccc2c(c1)CC1(C2)Cc2ccccc2C1=O (stereo not given)
no

Next up: COP(=O)(/C=C/C(NC(=O)C(Cl)(Cl)Cl)c1ccccc1)OC (stereo not given)
no

Next up: OCC1CC2CC1C1(C2)OCCO1 (stereo not given)
no

Next up: CC(=O)OC12COC1CC(O)C1(C)C(=O)C(O)C3=C(C)C(O)CC(O)(C(OC(=O)c4ccccc4)C21)C3(C)C (stereo not given)
yes

Next up: "CCOC(=O)c1cc([N+](=O)[O-])cc([N+](=O)[O-])c1Sc1[nH]cnc2ncnc1-2"
no

Next up: CCCCCCCCCCOC1C(C(O)CNCCCN(C)C)OC2OC3(CCCCC3)OC21 (stereo not given)
no

Next up: COc1c(OC(C)=O)c(OC(C)=O)cc2c1-c1ccc(SC)c(=O)cc1C(NC(C)=O)CC2 (stereo not given)
yes

Next up: CC1C(c2ccccc2)O[B-](F)(c2ccccc2)[NH+]1C (stereo not given)
no

Next up: "CC[P+]1(CC)CCCC1"
no

Next up: CN(N=O)C(=O)NC(CCCCNC(=O)OCc1ccccc1)C(=O)OCc1ccccc1 (stereo not given)
no

Next up: "COc1ccc(CCc2cc(OC)c(OC)c(OC)c2)cc1"
yes

Next up: "Cn1c(SCc2ccc(F)cc2)nnc1C12CC3CC(CC(C3)C1)C2"
no

Next up: "C[n+]1cn(CC(=O)c2ccccc2)c(C(N)=O)c1N"
no

Next up: "C/C(=N\NC(N)=S)c1ccc(/C(C)=N/NC(N)=S)cc1"
no

Next up: COc1ccccc1C1C(Cl)C(=O)N1NC(=O)Cc1ccccc1 (stereo not given)
no
